assay: Stability of compound at pH 8.5 assessed as half life measured at 0.5 to 92 hrs by LC-UV/MS analysis; format: physicochemical; details: buffer, time 0.5-92 hrs
RESULT_TYPE: half-life (h)
Numbers only here, please. The scale is h.

Report half-life, nothing else, for this molecule: CCCCCC/C=C\CC(=O)N[C@H]1COC(=O)[C@H](C(C)C)NC(=O)[C@@H](CC(C)C)NC(=O)[C@H](C(C)C)NC(=O)[C@H](Cc2c[nH]cn2)NC(=O)[C@@H](C(C)C)NC1=O 26

---

test: Stability of compound at pH 8 assessed as half life measured at 0.5 to 92 hrs by LC-UV/MS analysis; assay type: physicochemical; conditions: buffer, time 0.5-92 hrs
RESULT_TYPE: half-life (h)
Numbers only here, please. The scale is h.

Report half-life, nothing else, for this molecule: CCCCCC/C=C\CC(=O)N[C@H]1COC(=O)[C@H](C(C)C)NC(=O)[C@@H](CC(C)C)NC(=O)[C@H](C(C)C)NC(=O)[C@H](Cc2c[nH]cn2)NC(=O)[C@@H](C(C)C)NC1=O 5
